experiment_notes: Stability indicating HPLC assay and related substances on storage (Example 3)
Type: physicochemical
details: 1 month, 60° C.
readout_kind: M6G Assay, Anhydrous basis (% w/w)
Note: unit % w/w is implicit; provide only the numeric part.

Recorded results for 3 molecules are shown here.
{"molecule": "CN1CCC23c4c5ccc(O)c4OC2C(OC2OC(C(=O)O)C(O)C(O)C2O)C=CC3C1C5.CN1CCC23c4c5ccc(O)c4OC2C(OC2OC(C(=O)O)C(O)C(O)C2O)C=CC3C1C5.O=C(O)C=CC(=O)O (centres unmarked) [Morphine-6-glucuronide maleate]", "M6G Assay, Anhydrous basis [% w/w]": 80.36}
{"molecule": "CN1CCC23c4c5ccc(O)c4OC2C(OC2OC(C(=O)O)C(O)C(O)C2O)C=CC3C1C5.O=P(O)(O)O (centres unmarked) [Morphine-6-glucuronide phosphate]", "M6G Assay, Anhydrous basis [% w/w]": 88.33}
{"molecule": "CN1CCC23c4c5ccc(O)c4OC2C(OC2OC(C(=O)O)C(O)C(O)C2O)C=CC3C1C5.CN1CCC23c4c5ccc(O)c4OC2C(OC2OC(C(=O)O)C(O)C(O)C2O)C=CC3C1C5.O=C(O)C=CC(=O)O (centres unmarked) [Morphine-6-glucuronide fumarate]", "M6G Assay, Anhydrous basis [% w/w]": 82.11}

// field: M6G Assay, Anhydrous basis; key: Br.CN1CC[C@]23c4c5ccc(O)c4O[C@H]2[C@@H](O[C@@H]2O[C@H](C(=O)O)[C@@H](O)[C@H](O)[C@H]2O)C=C[C@H]3[C@H]1C5 [Morphine-6-glucuronide hydrobromide] ; value = 84.44

Noted for CN1CC[C@]23c4c5ccc(O)c4O[C@H]2[C@@H](O[C@@H]2O[C@H](C(=O)O)[C@@H](O)[C@H](O)[C@H]2O)C=C[C@H]3[C@H]1C5 [Morphine-6-glucuronide base, morphine-6-β-D-glucuronide] : its M6G Assay, Anhydrous basis reads 96.18

====

experiment_notes: Stability indicating HPLC assay and related substances on storage (Example 3)
Assay type: physicochemical
details: 1 month, 60° C.
Protocol: Assay (% w/w) and related substances determination Each test material was stored between 2-8*C prior to placing on stability. Each material was sub-divided into 900 mg aliquots, transferred to brown opaque HDPE plastic bottles and flushed with Argon prior to sealing. Sufficient samples were provided for each time point as well as spares for each storage condition. The samples were placed in appropriate incubators previously commissioned at storage conditions 25° C./60% RH, 40° C./75% RH and 60° C. […]
readout_kind: Known Related Substances HN67003 (%)
State the answer as a number, implicitly in %.

Here's what some known entries look like.
{"molecule": "CN1CCC23c4c5ccc(O)c4OC2C(OC2OC(C(=O)O)C(O)C(O)C2O)C=CC3C1C5.O=P(O)(O)O (stereo not drawn) [Morphine-6-glucuronide phosphate]", "readout_kind": "Known Related Substances HN67003", "result_value": 0.90}
{"molecule": "CN1CC[C@]23c4c5ccc(O)c4O[C@H]2[C@@H](O[C@@H]2O[C@H](C(=O)O)[C@@H](O)[C@H](O)[C@H]2O)C=C[C@H]3[C@H]1C5 [Morphine-6-glucuronide base, morphine-6-β-D-glucuronide]", "readout_kind": "Known Related Substances HN67003", "result_value": 0.19}

CN1CCC23c4c5ccc(O)c4OC2C(OC2OC(C(=O)O)C(O)C(O)C2O)C=CC3C1C5.CN1CCC23c4c5ccc(O)c4OC2C(OC2OC(C(=O)O)C(O)C(O)C2O)C=CC3C1C5.O=C(O)C=CC(=O)O (stereo not drawn) [Morphine-6-glucuronide maleate] yielded Known Related Substances HN67003 of 1.20

Data origin, for the record: patent US20060166900A1
